# Study target: T1, Human CD137 ECD (human)
# T1 construct: also called 4-1BB
# T1 sequence (chain, as listed by the source limits assumed): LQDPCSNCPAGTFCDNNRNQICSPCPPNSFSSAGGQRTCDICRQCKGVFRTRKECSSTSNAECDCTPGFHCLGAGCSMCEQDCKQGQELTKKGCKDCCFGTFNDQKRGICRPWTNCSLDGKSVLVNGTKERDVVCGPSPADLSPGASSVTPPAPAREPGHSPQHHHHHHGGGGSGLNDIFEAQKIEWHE
# Measurement notes: single mutant vs template dBBDu183H
Decision: fold change of affinity >= 0.6 fold yields 1.0, all other cases yield 0.0.

Binder	Answer label
H183/L072 VH I51K (antibody, name in Kabat numbering, V domains shown) VH: QVQLVESGGGLVQPGRSLRLSCAASGFTFSNAWMHWVRQAPGKGLEWVAQKKDKGNAYAAYYAPSVKGRFTISRDDSKNSIYLQMNSLKTEDTAVYYCHYVHYASASTVLPAFGVDAWGQGTTVTVSS VL: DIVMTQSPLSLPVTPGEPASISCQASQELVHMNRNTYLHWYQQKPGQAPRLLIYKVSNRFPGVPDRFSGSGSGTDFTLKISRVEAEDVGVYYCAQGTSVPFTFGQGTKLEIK	0.0
H183/L072 VH A32V (antibody, name in Kabat numbering, V domains shown) VH: QVQLVESGGGLVQPGRSLRLSCAASGFTFSNVWMHWVRQAPGKGLEWVAQIKDKGNAYAAYYAPSVKGRFTISRDDSKNSIYLQMNSLKTEDTAVYYCHYVHYASASTVLPAFGVDAWGQGTTVTVSS VL: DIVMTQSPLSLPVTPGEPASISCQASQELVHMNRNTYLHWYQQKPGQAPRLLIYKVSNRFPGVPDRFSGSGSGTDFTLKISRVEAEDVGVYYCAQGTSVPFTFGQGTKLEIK	1.0
H183/L072 VH F27W (antibody, name in Kabat numbering, V domains shown) VH: QVQLVESGGGLVQPGRSLRLSCAASGWTFSNAWMHWVRQAPGKGLEWVAQIKDKGNAYAAYYAPSVKGRFTISRDDSKNSIYLQMNSLKTEDTAVYYCHYVHYASASTVLPAFGVDAWGQGTTVTVSS VL: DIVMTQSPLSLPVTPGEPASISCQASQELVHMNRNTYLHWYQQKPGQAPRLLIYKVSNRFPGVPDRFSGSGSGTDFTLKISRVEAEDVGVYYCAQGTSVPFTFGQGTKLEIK	0.0
H183/L072 VH A57F (antibody, name in Kabat numbering, V domains shown) VH: QVQLVESGGGLVQPGRSLRLSCAASGFTFSNAWMHWVRQAPGKGLEWVAQIKDKGNAYAFYYAPSVKGRFTISRDDSKNSIYLQMNSLKTEDTAVYYCHYVHYASASTVLPAFGVDAWGQGTTVTVSS VL: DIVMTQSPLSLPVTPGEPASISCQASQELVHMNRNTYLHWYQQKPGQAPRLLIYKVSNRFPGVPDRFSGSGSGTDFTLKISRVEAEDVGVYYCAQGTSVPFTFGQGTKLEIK	0.0
H183/L072 VH K52bS (antibody, name in Kabat numbering, V domains shown) VH: QVQLVESGGGLVQPGRSLRLSCAASGFTFSNAWMHWVRQAPGKGLEWVAQIKDSGNAYAAYYAPSVKGRFTISRDDSKNSIYLQMNSLKTEDTAVYYCHYVHYASASTVLPAFGVDAWGQGTTVTVSS VL: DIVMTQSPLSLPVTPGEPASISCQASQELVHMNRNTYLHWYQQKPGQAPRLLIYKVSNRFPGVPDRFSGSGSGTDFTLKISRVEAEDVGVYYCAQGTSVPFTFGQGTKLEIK	1.0

Q: Item H183/L072 VH S30L (antibody, name in Kabat numbering, V domains shown) VH: QVQLVESGGGLVQPGRSLRLSCAASGFTFLNAWMHWVRQAPGKGLEWVAQIKDKGNAYAAYYAPSVKGRFTISRDDSKNSIYLQMNSLKTEDTAVYYCHYVHYASASTVLPAFGVDAWGQGTTVTVSS VL: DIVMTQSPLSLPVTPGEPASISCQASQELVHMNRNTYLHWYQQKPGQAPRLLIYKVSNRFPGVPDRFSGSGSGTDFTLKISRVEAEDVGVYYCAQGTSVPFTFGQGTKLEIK with fold change of affinity of 0.6 fold or above?
A: 0.0

Q: Item H183/L072 VH N31A (antibody, name in Kabat numbering, V domains shown) VH: QVQLVESGGGLVQPGRSLRLSCAASGFTFSAAWMHWVRQAPGKGLEWVAQIKDKGNAYAAYYAPSVKGRFTISRDDSKNSIYLQMNSLKTEDTAVYYCHYVHYASASTVLPAFGVDAWGQGTTVTVSS VL: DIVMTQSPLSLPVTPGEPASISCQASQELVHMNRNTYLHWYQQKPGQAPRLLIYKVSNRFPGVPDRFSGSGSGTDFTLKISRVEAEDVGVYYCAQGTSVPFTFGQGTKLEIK with fold change of affinity of 0.6 fold or above?
A: 0.0

Q: Item H183/L072 VH A56T (antibody, name in Kabat numbering, V domains shown) VH: QVQLVESGGGLVQPGRSLRLSCAASGFTFSNAWMHWVRQAPGKGLEWVAQIKDKGNAYTAYYAPSVKGRFTISRDDSKNSIYLQMNSLKTEDTAVYYCHYVHYASASTVLPAFGVDAWGQGTTVTVSS VL: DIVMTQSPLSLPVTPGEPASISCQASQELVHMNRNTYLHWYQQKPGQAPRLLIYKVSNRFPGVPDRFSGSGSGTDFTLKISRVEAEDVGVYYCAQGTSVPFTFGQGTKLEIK with fold change of affinity of 0.6 fold or above?
A: 0.0

Q: Item H183/L072 VH A57K (antibody, name in Kabat numbering, V domains shown) VH: QVQLVESGGGLVQPGRSLRLSCAASGFTFSNAWMHWVRQAPGKGLEWVAQIKDKGNAYAKYYAPSVKGRFTISRDDSKNSIYLQMNSLKTEDTAVYYCHYVHYASASTVLPAFGVDAWGQGTTVTVSS VL: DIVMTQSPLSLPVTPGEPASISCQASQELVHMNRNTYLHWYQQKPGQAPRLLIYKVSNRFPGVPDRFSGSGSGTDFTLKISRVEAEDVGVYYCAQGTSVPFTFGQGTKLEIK with fold change of affinity of 0.6 fold or above?
A: 1.0
